# SYSTEM UNDER TEST: GluN1a–GluN2B ATD heterodimer (UniProt A0A1L8F5J9+Q00960, N348D/N350Q/N61Q)
# Construct: the ATD domains of Xenopus GluN1a and rat GluN2B; alkaline phosphatase secretion signal (N); 57 residue linker to the other ATD, with TEV protease sites (cleaved yes); made in house
# Sequence (Q00960 31-394 N348D limits assumed, other chains not shown): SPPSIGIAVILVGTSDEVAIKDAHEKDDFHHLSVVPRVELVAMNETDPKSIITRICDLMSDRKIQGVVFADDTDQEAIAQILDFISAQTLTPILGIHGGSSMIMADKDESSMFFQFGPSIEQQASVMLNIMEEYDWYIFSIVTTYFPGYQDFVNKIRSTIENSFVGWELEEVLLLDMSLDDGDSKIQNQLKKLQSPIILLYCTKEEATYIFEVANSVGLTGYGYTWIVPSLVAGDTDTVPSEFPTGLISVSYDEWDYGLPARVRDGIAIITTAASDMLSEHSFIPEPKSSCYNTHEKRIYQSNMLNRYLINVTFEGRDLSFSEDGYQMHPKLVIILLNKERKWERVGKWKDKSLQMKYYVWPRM
# TEST: ITC, ligands titrated into isolated GluN1a–GluN2B ATD heterodimer
# Type: binding, Xenopus GluN1a, rat GluN2B
# EXPERIMENTAL PARAMETERS: KD, pH 7.6
REPORTED METRIC: Kd (nM)
Respond numerically; units are nM and should not be typed.

Incoming: // Kd lookup, key: CC(C(O)c1ccc(O)cc1)N1CCC(Cc2ccccc2)CC1 (stereo not shown) [Ifenprodil, Ifenprodil hemitartrate]
Outgoing: 226

###

# SYSTEM UNDER TEST: GluN1a–GluN2B ATD heterodimer (UniProt A0A1L8F5J9+Q00960, N348D/N350Q/N61Q)
# Construct: the ATD domains of Xenopus GluN1a and rat GluN2B; alkaline phosphatase secretion signal (N); 57 residue linker to the other ATD, with TEV protease sites (cleaved yes); made in house
# TEST: ITC, ligands titrated into isolated GluN1a–GluN2B ATD heterodimer
# Format: binding, Xenopus GluN1a, rat GluN2B
# EXPERIMENTAL PARAMETERS: KD, pH 6.5
REPORTED METRIC: Kd
Please don't drop the unit; write it after the number.

Incoming: Entry CC(C(O)c1ccc(O)cc1)N1CCC(Cc2ccccc2)CC1 (stereo not shown) [Ifenprodil, Ifenprodil hemitartrate] has what Kd?
Outgoing: 249 nM

###

# SYSTEM UNDER TEST: GluN1b–GluN2B ATD heterodimer (Xenopus laevis; Rattus norvegicus, UniProt A0A1L8F5J9+Q00960, E186G/INS190SKKRNYENLDQLSYDNKRGPK/N348D/N350Q/N61Q)
# TEST: ITC, ifenprodil titrated into isolated GluN1b–GluN2B ATD used for crystallization
# Format: binding
# EXPERIMENTAL PARAMETERS: pH 7.6
REPORTED METRIC: pKd
pKd (log units): -log10 of the concentration in mol/L.

Incoming: What does the record list as pKd for CC(C(O)c1ccc(O)cc1)N1CCC(Cc2ccccc2)CC1 (stereo not shown) [Ifenprodil, Ifenprodil hemitartrate] ?
Outgoing: 6.59
